The following molecules each carry a recorded Ki for UniProtKB Q13002.
Sequence (Q13002 whole entry): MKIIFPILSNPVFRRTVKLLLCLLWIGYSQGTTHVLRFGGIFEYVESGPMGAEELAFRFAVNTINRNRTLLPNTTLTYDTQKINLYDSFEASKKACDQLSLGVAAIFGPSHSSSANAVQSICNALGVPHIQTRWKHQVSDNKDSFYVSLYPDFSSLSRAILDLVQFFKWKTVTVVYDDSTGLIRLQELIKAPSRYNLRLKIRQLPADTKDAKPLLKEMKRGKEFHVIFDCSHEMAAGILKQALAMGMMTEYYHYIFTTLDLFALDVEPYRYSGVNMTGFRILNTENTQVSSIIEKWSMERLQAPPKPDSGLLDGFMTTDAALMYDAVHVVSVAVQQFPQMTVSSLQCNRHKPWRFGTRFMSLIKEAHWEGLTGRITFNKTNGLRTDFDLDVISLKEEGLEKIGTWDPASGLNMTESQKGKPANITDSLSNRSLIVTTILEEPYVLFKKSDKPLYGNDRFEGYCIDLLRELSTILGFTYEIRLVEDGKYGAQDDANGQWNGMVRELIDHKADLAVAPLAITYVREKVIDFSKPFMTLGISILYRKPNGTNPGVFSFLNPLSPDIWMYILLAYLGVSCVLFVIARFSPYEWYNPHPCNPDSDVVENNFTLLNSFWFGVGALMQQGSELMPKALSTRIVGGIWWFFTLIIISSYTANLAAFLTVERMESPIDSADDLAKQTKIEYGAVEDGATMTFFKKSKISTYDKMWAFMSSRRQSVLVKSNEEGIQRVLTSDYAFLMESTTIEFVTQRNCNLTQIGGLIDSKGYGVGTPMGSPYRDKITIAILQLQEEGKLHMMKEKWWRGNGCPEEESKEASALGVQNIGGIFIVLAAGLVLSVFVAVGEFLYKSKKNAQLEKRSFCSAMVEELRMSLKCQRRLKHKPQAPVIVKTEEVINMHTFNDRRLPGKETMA

O=C(O)[C@@H]1C[C@H]2C[C@@H](CCc3nn[nH]n3)CC[C@H]2CN1; > 10 µM

[ask] // lookup Ki | system=UniProtKB Q13002 | key= O=C(O)C1CC(F)(F)CN1C[C@H]1CC[C@H]2CN[C@H](C(=O)O)C[C@H]2C1 (some centres not stated) [LY-466195]
[reply] > 10 µM

The origin of these recorded values is BindingDB's records for doi:10.1124/jpet.106.101428.
